I'd appreciate it if you could supply FPN EC50 values for the items below.
# experimental_target: T1, human ferroportin (SLC40A1) fused in frame with GFP, stably expressed in HEK293 cells (human, UniProt Q9NP59 1-571)
# T1 sequence (looked up): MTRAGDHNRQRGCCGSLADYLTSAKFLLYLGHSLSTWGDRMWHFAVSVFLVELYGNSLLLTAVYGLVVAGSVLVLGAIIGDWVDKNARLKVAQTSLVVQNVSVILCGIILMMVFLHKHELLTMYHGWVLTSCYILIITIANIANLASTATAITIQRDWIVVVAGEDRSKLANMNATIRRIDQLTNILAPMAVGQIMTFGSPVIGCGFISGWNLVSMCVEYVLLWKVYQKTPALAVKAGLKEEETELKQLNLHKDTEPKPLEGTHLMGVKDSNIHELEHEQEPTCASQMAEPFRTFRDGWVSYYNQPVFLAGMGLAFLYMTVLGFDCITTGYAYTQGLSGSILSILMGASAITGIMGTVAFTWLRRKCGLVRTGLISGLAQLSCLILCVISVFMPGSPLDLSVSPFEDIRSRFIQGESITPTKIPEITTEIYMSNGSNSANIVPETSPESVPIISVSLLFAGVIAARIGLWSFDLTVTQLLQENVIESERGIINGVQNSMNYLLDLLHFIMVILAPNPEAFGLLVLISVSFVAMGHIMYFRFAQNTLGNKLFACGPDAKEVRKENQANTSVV
# procedure_text: cell-based or functional assay
Non-standard residues stand in square brackets, D forms with d. Groups on a side chain read outwards from the residue. *: point of attachment. Dip = N[C@H](C(=O)O)C(c1ccccc1)c1ccccc1; Palmitoyl = CCCCCCCCCCCCCCCC(=O)*; β3hF = N[C@H](CC(=O)O)Cc1ccccc1; Isovaleryl = CC(C)CC(=O)*; Ahx = NCCCCCC(=O)O
Give bare numbers, in nM.

>  <binder>
Isovaleryl-ETH[Dip]PIIK([Ahx-Palmitoyl])[β3hF]-NH2 [Isovaleric Acid-E-T-H-[Dpa]-P-I-I-[Lys(Ahx_Palm)]-[bhPhe]-NH2]

>  <readout_unit>
nM

>  <FPN EC50>
232

$$$$

Next binder, FPN EC50 to be filled in.
Can you share its FPN EC50? I mean this binder: Isovaleryl-ETH[Dip]PAI[dK][β3hF]K([Ahx-Palmitoyl])[dK]A-NH2 (SMILES CCCCCCCCCCCCCCCC(=O)NCCCCCC(=O)NCCCC[C@H](NC(=O)C[C@H](Cc1ccccc1)NC(=O)[C@@H](CCCCN)NC(=O)[C@@H](NC(=O)[C@H](C)NC(=O)[C@@H]1CCCN1C(=O)[C@@H](NC(=O)[C@H](Cc1c[nH]cn1)NC(=O)[C@@H](NC(=O)[C@H](CCC(=O)O)NC(=O)CC(C)C)[C@@H](C)O)C(c1ccccc1)c1ccccc1)[C@@H](C)CC)C(=O)N[C@H](CCCCN)C(=O)N[C@@H](C)C(N)=O) [Isovaleric Acid-E-T-H-[Dpa]-P-A-I-[(D)Lys]-[bhPhe]-[Lys(Ahx_Palm)]-[(D)Lys]-A-NH2]
17.8

Hey, just so you know, these numbers are from patent US20240066131A1.
